- test.target: Cytochrome P450 2C19 (Homo sapiens) (UniProt P33261)
- Sequence (P33261 whole entry, looked up): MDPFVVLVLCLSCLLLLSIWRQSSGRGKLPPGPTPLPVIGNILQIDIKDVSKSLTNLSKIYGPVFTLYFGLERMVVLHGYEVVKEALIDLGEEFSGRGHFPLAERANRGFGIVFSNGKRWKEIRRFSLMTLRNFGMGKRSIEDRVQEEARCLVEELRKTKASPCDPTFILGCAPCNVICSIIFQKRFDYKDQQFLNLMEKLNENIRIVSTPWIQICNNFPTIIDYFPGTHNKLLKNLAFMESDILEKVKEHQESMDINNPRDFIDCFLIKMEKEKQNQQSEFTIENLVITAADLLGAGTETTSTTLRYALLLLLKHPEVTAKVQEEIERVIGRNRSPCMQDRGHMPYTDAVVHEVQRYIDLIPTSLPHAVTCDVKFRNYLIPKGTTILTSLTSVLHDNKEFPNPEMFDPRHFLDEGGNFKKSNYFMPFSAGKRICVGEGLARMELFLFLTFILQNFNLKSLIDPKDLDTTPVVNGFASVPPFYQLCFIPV
- experiment.notes: Cytochrome P450 Family 2 Subfamily C Member 19 (CYP2C19) small molecule antagonists: luciferase reporter qHTS assay (AID 1671197); also: nearly all actives have a fitted effect of over 65% in size
- run.conditions: P450-Glo CYP2C19 enzyme, luciferin luminescence, 1 h; series mostly up to 115 µM
- From the text: National Center for Advancing Translational Sciences [NCATS] U.S. Environmental Protection Agency [EPA] National Institutes of Environmental Health Sciences [NIEHS] National Toxicology Program [NTP] U.S. Food and Drug Administration [FDA] Cytochrome P450 (CYP) enzymes are membrane-bound hemeproteins that play a key role in metabolism of drugs and xenobiotics. […] The luciferin products formed are detected with a luciferin detection reagent, and the amount of light produced is proportional to CYP activity. […]
Inconclusive results are not listed. The source made the active and inactive calls. Calls follow the shape of the dose curve; as a rule, active = well fitted inhibition curve with a large enough effect in the repeat runs; inconclusive = weak or mixed curves; inactive = no such curve, though single readings can be large or run the other way.
Outcome field: choose from active, inactive

Problem: Returns: the outcome recorded for `CCCCCCCC(=O)Cl` in this assay.
Solution: active

Problem: Returns: the outcome recorded for CCN1CCCC1CNC(=O)C(O)(c1ccccc1)c1ccccc1 (stereo not drawn) in this assay.
Solution: inactive

Problem: Returns: the outcome recorded for CN1C(=O)COc2c(C(=O)NC3CN4CCC3CC4)cc(Cl)cc21 (stereo not drawn) in this assay.
Solution: inactive

Problem: Returns: the outcome recorded for `Cc1ccc(-c2nc3ccc(C)cn3c2CC(=O)N(C)C)cc1` in this assay.
Solution: inactive

Problem: Returns: the outcome recorded for `NCCOS(=O)(=O)O` in this assay.
Solution: inactive

Problem: Returns: the outcome recorded for `CN(C)CCc1c[nH]c2cccc(OP(=O)(O)O)c12` in this assay.
Solution: inactive

Problem: Returns: the outcome recorded for `CCCN1CCC[C@@H]2Cc3nc(N)ncc3C[C@H]21` in this assay.
Solution: inactive

Problem: Returns: the outcome recorded for `CCCC(C)(COC(N)=O)COC(N)=O` in this assay.
Solution: active

Problem: Returns: the outcome recorded for `NNCc1ccccc1` in this assay.
Solution: active

Problem: Returns: the outcome recorded for `CCCOc1nn(C(=O)NS(=O)(=O)c2ccccc2C(=O)OC)c(=O)n1C` in this assay.
Solution: inactive

Problem: Returns: the outcome recorded for `N#CN=C1SCCN1Cc1ccc(Cl)nc1` in this assay.
Solution: inactive

Problem: Returns: the outcome recorded for `CCCC[N+](=O)[O-]` in this assay.
Solution: inactive

Problem: Returns: the outcome recorded for `C[C@H](CN1CCOCC1)C(C(=O)N1CCCC1)(c1ccccc1)c1ccccc1` in this assay.
Solution: active
